meta.source: BindingDB's records for doi:10.7270/Q2PR7TCX

# MEASUREMENT TARGET: Steroidogenic factor 1 (Homo sapiens, UniProt Q13285)
# Sequence (Q13285 whole entry, the tested form may be a part): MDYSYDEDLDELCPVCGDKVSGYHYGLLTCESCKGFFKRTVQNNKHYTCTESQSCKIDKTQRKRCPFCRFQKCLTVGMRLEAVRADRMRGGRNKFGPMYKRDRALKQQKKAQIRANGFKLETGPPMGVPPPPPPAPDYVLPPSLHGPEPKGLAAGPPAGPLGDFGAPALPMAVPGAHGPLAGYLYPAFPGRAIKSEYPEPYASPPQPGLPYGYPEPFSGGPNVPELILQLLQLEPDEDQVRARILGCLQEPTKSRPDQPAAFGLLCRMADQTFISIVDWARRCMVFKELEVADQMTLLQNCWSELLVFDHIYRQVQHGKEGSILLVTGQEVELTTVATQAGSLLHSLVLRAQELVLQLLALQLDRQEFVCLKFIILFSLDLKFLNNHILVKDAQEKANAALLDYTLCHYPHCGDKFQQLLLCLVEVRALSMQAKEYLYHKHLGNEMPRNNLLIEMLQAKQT
# TEST: inhibition of SF-1 LBD-driven luciferase – cell-based, CHO-K1, Gal4-SF-1 LBD, luciferase luminescence, counter-screen for RORA inhibitor project, dose response (AID 611)
# ASSAY CONDITIONS: inactive by the depositor's call
pIC50: −log10 of the molar value.
MEASURED PARAMETER: pIC50

{"MOLECULE": "O=C1c2ccccc2S(=O)(=O)N1Cc1nc2ccccc2s1", "pIC50": 4.97}
{"MOLECULE": "Cc1cc(C)nc(SCC(=O)Nc2ccc(N3CCOCC3)c(Cl)c2)n1 [MLS000066583]", "pIC50": 4.88}
{"MOLECULE": "COc1ccc2[nH]c(=O)c3c(c2c1)OC(C)(C)C=C3", "pIC50": 4.78}
{"MOLECULE": "CC1(C)COCN1S(=O)(=O)c1ccc(C(=O)Nc2nnc(-c3ccc(Cl)s3)o2)cc1 [MLS000086346]", "pIC50": 4.91}
{"MOLECULE": "CCCOC(=O)c1[nH]c2c(c1C)C(=O)CC(c1cc(OC)c(OC)c(OC)c1)C2 (stereo not given) [MLS000116504]", "pIC50": 4.94}

I: Cc1ccccc1OCC(=O)Nc1ccc(N2CCN(C(=O)C(C)C)CC2)c(Cl)c1 [MLS000034491]
II: Nc1ccc2oc(-c3cc(Br)ccc3Cl)nc2c1
*Q* For the pair I and II , which entry has the numerically smaller recorded pIC50? Answer = label.
*A* II

a: Fc1ccc2[nH]c3c(N4CCSCC4)ncnc3c2c1 [MLS000078401]
b: CCCNc1nc2c(c(=O)n(C)c(=O)n2C)n1Cc1cccc(C)c1
*Q* For the pair a and b , which entry has the numerically smaller recorded pIC50? Answer = label.
*A* b
